# testName: Critical micelle concentration (CMC) by DPH fluorescence
# Format: physicochemical
# recordedConditions: 50 mM tris-HCl, pH 8.0
Residues, ends and D or L forms follow the SMILES beside them. *: point of attachment. Palmitoyl = CCCCCCCCCCCCCCCC(=O)*
# CMC per entry
metricName: CMC (mM)

1) CCCCCCCCCCCCCC(=O)N[C@@H](CO)C(=O)N[C@H](CCC(=O)O)C(=O)O [Compound 2.3a] (HELM PEPTIDE1{[CCCCCCCCCCCCCC(=O)[*:2]].S.[dE]}$$$$V2.0) ... 2
2) CCCCCCCCCCCCCCCC(=O)NC(CC(=O)NC(CCC(=O)O)C(=O)O)C(=O)NC(CCC(=O)O)C(=O)O (stereo not drawn) [Compound 4.6d] (Palmitoyl-Asp(Glu)-Glu-OH; configuration not given here) ... 1
3) CCCCCCCCCCCCCCCCCCC(=O)N[C@@H](COCc1cn(CCO[C@@H]2OC(CO)[C@@H](O[C@H]3OC(CO)[C@@H](O)C(O)C3O)C(O)C2O)nn1)C(=O)N[C@H](CCC(=O)O)C(=O)O (stereo partly drawn) ... 0.02
4) CCCCCCCCCCCC(=O)N[C@@H](COCc1cn(CCO[C@@H]2OC(CO)[C@@H](O)C(O)C2O)nn1)C(=O)N[C@H](CCC(=O)O)C(=O)O (stereo partly drawn) ... 1.5
5) CCCCCCCCCCCCCC(=O)N[C@@H](COCc1cn(CCO[C@@H]2OC(CO)[C@@H](O)C(O)C2O)nn1)C(=O)N[C@@H](CCC(=O)O)C(=O)NCC(=O)O (stereo partly drawn) ... 1
6) CCCNC(=O)[C@H](CO)N(CC(=O)O)CC(=O)O ... 2.5
7) CCCCCCCCCCCCCCCCCCC(=O)N[C@@H](COCc1cn(CCO[C@@H]2OC(CO)[C@@H](O)C(O)C2O)nn1)C(=O)N[C@H](CCC(=O)O)C(=O)O (stereo partly drawn) ... 0.02
8) CCCCCCCCCCCCCCCC(=O)NC(CC(=O)O)C(=O)NC(CCC(=O)O)C(=O)O (stereo not drawn) [Compound 4.5d] (Palmitoyl-Asp-Glu-OH; configuration not given here) ... 1
9) CCCCCCCCCCCCCCCCCCC(=O)N[C@@H](COCc1cn(CCOCCOCCOCCOCCOCCOC)nn1)C(=O)N[C@H](CCC(=O)O)C(=O)O ... 0.01

###

# CMC per entry
# testName: Critical micelle concentration (CMC) by DPH fluorescence
# Assay type: physicochemical
# recordedConditions: 50 mM tris-HCl, pH 8.0
Residues, ends and D or L forms follow the SMILES beside them. *: point of attachment. Decanoyl = CCCCCCCCCC(=O)*
metricName: CMC (mM)

1. CCCCCCCCCCCCC(=O)N[C@@H](CO)C(=O)N[C@H](CCC(=O)O)C(=O)O ... 0.8
2. CCCCCCCC(=O)N[C@@H](CO)C(=O)N[C@H](CCC(=O)O)C(=O)O [Compound 2.3b] (HELM PEPTIDE1{[CCCCCCCC(=O)[*:2]].S.[dE]}$$$$V2.0) ... 5
3. CCCCCCCCCC(=O)NC(CC(=O)O)C(=O)NC(CCC(=O)O)C(=O)O (stereo not drawn) [Compound 4.5a] (Decanoyl-Asp-Glu-OH; configuration not given here) ... 3

###

# systemName: BmrA (Bacillus subtilis)
# Construct: His tag; made in house; host or cells: E. coli C41(DE3)
# Sequence (O06967 whole entry): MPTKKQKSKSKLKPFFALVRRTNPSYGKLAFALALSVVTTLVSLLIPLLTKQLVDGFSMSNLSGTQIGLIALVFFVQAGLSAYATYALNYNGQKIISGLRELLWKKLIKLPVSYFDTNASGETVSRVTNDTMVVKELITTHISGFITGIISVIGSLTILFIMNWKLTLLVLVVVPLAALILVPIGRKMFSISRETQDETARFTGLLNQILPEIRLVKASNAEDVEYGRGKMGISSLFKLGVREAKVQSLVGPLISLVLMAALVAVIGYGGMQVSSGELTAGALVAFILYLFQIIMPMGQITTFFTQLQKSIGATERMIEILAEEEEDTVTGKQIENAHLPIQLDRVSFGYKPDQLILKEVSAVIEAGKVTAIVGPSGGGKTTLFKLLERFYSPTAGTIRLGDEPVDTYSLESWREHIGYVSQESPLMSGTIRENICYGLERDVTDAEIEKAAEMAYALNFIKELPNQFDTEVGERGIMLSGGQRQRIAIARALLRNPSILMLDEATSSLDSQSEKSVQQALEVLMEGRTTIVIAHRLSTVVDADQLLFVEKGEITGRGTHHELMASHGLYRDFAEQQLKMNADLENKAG
# testName: Extraction of BmrA from membranes (SDS-PAGE of supernatant)
# Design: species or system bacterial; overexpressed in E. coli C41DE3
# recordedConditions: detergent 10 g/l unless indicated otherwise; 2 h at 4° C.
Residues, ends and D or L forms follow the SMILES beside them. *: point of attachment. Palmitoyl = CCCCCCCCCCCCCCCC(=O)*; Decanoyl = CCCCCCCCCC(=O)*
metricName: extraction of BmrA

1. CCCCCCCCCC(=O)NC(CC(=O)NC(CCC(=O)O)C(=O)O)C(=O)NC(CCC(=O)O)C(=O)O (centres unmarked) [Compound 4.6a] (Decanoyl-Asp(Glu)-Glu-OH; configuration not given here) ... non-extracting
2. CCCCCCCCC(=O)N[C@@H](CO)C(=O)N[C@H](CCC(=O)O)C(=O)O [Compound 2.3c] (HELM PEPTIDE1{[CCCCCCCCC(=O)[*:2]].S.[dE]}$$$$V2.0) ... non-extracting
3. O=C(O)CC[C@@H](NC(=O)[C@H](COCc1cn(CCO[C@@H]2OC(CO)[C@@H](O)C(O)C2O)nn1)NC(=O)CCCCC1CCCCC1)C(=O)O (some centres unmarked) ... non-extracting
4. CCCCCCCCCCCCCCCC(=O)NC(CC(=O)O)C(=O)NC(CCC(=O)O)C(=O)O (stereo not drawn) [Compound 4.5d] (Palmitoyl-Asp-Glu-OH; configuration not given here) ... extracting
5. CCCCCCCCCCCCCC(=O)N[C@@H](COCc1cn(CCO[C@@H]2OC(CO)[C@@H](O)C(O)C2O)nn1)C(=O)N[C@H](CCC(=O)O)C(=O)O (some centres unmarked) ... extracting
6. CCCCCCCC(=O)N[C@@H](CO)C(=O)N[C@H](CCC(=O)O)C(=O)O [Compound 2.3b] (HELM PEPTIDE1{[CCCCCCCC(=O)[*:2]].S.[dE]}$$$$V2.0) ... non-extracting
7. CCCCCCCCCCCCCC(=O)N[C@@H](COCc1cn(CCO[C@@H]2OC(CO)[C@@H](O[C@H]3OC(CO)[C@@H](O)C(O)C3O)C(O)C2O)nn1)C(=O)N[C@H](CCC(=O)O)C(=O)O (some centres unmarked) ... non-extracting
8. CCCCCCCCCCCCCCCC(=O)N[C@@H](CO)C(=O)N[C@H](CCC(=O)O)C(=O)O [Compound 2.3h] (HELM PEPTIDE1{[CCCCCCCCCCCCCCCC(=O)[*:2]].S.[dE]}$$$$V2.0) ... extracting
9. CCCCCC(CCCCC)C(=O)N[C@@H](COCc1cn(CCO[C@@H]2OC(CO)[C@@H](O)C(O)C2O)nn1)C(=O)N[C@H](CCC(=O)O)C(=O)O (some centres unmarked) ... non-extracting

###

# systemName: AcrB (Escherichia coli, UniProt P31224)
# Construct: made in house; host or cells: E. coli C41(DE3)
# Sequence (P31224 whole entry): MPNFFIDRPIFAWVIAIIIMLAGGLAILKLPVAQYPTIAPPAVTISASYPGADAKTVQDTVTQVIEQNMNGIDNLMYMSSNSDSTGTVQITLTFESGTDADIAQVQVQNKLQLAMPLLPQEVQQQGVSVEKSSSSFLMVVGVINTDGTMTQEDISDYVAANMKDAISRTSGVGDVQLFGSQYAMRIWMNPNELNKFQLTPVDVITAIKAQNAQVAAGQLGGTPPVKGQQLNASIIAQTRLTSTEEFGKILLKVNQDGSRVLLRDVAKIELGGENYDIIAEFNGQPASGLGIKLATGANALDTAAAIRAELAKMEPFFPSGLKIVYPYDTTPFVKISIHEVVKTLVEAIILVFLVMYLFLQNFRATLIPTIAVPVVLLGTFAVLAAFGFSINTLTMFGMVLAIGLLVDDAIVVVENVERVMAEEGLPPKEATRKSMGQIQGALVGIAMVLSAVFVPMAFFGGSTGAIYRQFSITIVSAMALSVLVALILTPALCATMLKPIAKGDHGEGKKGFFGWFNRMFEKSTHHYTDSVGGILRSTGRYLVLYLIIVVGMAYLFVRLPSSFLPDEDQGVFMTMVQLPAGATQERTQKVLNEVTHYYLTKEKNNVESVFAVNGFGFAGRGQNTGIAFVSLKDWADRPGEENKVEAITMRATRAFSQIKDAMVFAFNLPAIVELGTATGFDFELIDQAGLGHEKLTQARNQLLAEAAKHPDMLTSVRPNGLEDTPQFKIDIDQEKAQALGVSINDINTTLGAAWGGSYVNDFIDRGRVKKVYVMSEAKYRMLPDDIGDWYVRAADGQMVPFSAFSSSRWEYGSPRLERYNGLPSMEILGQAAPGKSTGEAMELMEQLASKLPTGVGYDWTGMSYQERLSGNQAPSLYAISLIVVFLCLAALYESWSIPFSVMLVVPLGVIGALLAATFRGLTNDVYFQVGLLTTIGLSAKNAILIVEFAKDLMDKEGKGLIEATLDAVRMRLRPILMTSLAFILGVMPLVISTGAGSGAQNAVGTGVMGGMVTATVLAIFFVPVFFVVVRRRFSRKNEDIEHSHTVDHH
# testName: Extraction of AcrB from membranes (SDS-PAGE of supernatant)
# Set-up: species or system bacterial; same expression system (E. coli C41DE3)
# recordedConditions: detergent 10 g/l unless indicated otherwise; 2 h at 4° C.
# Excerpt: […]
Residues, ends and D or L forms follow the SMILES beside them. *: point of attachment. Myristoyl = CCCCCCCCCCCCCC(=O)*; Decanoyl = CCCCCCCCCC(=O)*
metricName: extraction of AcrB

1) CCCCCCCCCCCCCC(=O)NC(CC(=O)O)C(=O)NC(CCC(=O)O)C(=O)O (stereo not drawn) [Compound 4.5c] (Myristoyl-Asp-Glu-OH; configuration not given here) ... extracting
2) CCCCCCCCCCCCCC(=O)N[C@@H](COCc1cn(CCO[C@@H]2OC(CO)[C@@H](O[C@H]3OC(CO)[C@@H](O)C(O)C3O)C(O)C2O)nn1)C(=O)N[C@H](CCC(=O)O)C(=O)O (some centres unmarked) ... extracting
3) CCCCCCCCCC(=O)NC(CC(=O)NC(CCC(=O)O)C(=O)O)C(=O)NC(CCC(=O)O)C(=O)O (centres unmarked) [Compound 4.6a] (Decanoyl-Asp(Glu)-Glu-OH; configuration not given here) ... do not extract
4) CCCCCCCCC(=O)N[C@@H](CO)C(=O)N[C@H](CCC(=O)O)C(=O)O [Compound 2.3c] (HELM PEPTIDE1{[CCCCCCCCC(=O)[*:2]].S.[dE]}$$$$V2.0) ... extracting
5) CCCCCCCCCCCC(=O)N[C@@H](COCc1cn(CCO[C@@H]2OC(CO)[C@@H](O)C(O)C2O)nn1)C(=O)N[C@H](CCC(=O)O)C(=O)O (some centres unmarked) ... do not extract
